Numbers sourced from ChEMBL document CHEMBL1157539.

tested on: Plasmodium falciparum; experiment: GSK_TCMDC: Inhibition of Plasmodium falciparum 3D7 in whole erythrocytes, using parasite LDH activity as an index of growth.; format: functional, organism-based; conditions: Plasmodium falciparum, 3D7
Assay readout: XC50 (nM)
Give a bare numeral; the unit nM is implied.

The following compounds have reported results that may help.
compound=C[C@@H](N)C#Cc1cc2c(Nc3ccc(OCc4cccc(F)c4)c(Cl)c3)ncnc2s1 numeric_value=1060
compound="O=C(Nc1ccc(Cl)cc1)NC1CCN(CCCCCNC(=O)C2CC2c2ccc(Cl)c(Cl)c2)CC1 (stereo not drawn)" numeric_value=576
compound=COc1ccc2nccc(N3CCC(O)(CCNCc4ccc5c(n4)NC(=O)CO5)CC3)c2n1 numeric_value=819
compound=Cc1oc(-c2ccccc2)nc1CCOc1ccc(C[C@H](Nc2ccccc2C(=O)c2ccccc2)C(=O)NCc2ccccn2)cc1 numeric_value=884

Query: Which XC50 value is on record for COc1cccc2cc(C(=O)N[C@@H](CC(C)C)C(=O)N[C@H](/C=N/NC(=O)OC(C)(C)C)CC(=O)OC(C)(C)C)oc12 ?
Response: 403

Query: Dear colleague, I am looking for the recorded XC50 of the following compound: Oc1ccc(-c2ccccc2)cc1CN1CCCCCC1
Response: 1170

Query: Need XC50 of O=C(Cn1c(SCc2cccc(F)c2F)cc(=O)c2ccccc21)N(CCN1CCCCC1)Cc1ccc(-c2ccc(C(F)(F)F)cc2)cc1 , thanks.
Response: 664

Query: Item N#Cc1ccc(N[C@@H](CC2CCCCC2)C(=O)NCc2cc(Cl)cc(Cl)c2)c2ccccc12 has what recorded XC50?
Response: 1100

Query: So what's the measured XC50 for this one? CC(CN1CCN(C)CC1)C(=O)Nc1cccc(-c2ccc(-c3nc4ccccc4[nH]3)cc2)c1 (stereo not drawn)
Response: 943

Query: Which measured XC50 value corresponds to Cn1c2c(c3ccccc31)CN(CCC1(c3ccc(Cl)c(Cl)c3)CN(C(=O)Cc3ccccc3)CCO1)CC2 (stereo not drawn) ?
Response: 358

Query: Which value of XC50 has been reported for CCCCCCCNC(=O)NCC1CCCN(CCCCCNC(=O)/C=C/c2ccc(Cl)c(Cl)c2)C1 (stereo not drawn) in the records?
Response: 1040

###

tested on: Plasmodium falciparum; test: GSK_TCMDC: Inhibition of Plasmodium falciparum 3D7 in whole erythrocytes, using parasite LDH activity as an index of growth.; format: functional, organism-based; conditions: Plasmodium falciparum, 3D7
Friendly reminder: XC50 below 800 nM is yes, at or above is no.

Answered examples (3):
compound="CNC(=O)C1Cc2c([nH]c3cc(Cl)ccc23)C2(CCN(CCc3ccccc3)CC2)N1 (stereo not given)" category_label=no
compound="CN1CCc2cc(Br)c(O)cc2C1Cc1ccccc1Cl (stereo not given)" category_label=yes
compound=COc1ccc(CNC2Cc3ccccc3C2)cc1-c1ccc(S(=O)(=O)NCc2ccccc2)s1 category_label=no

Query: Say whether its XC50 is strictly beneath 800 nM. Entry: NC(=O)CN1CC=C(c2c[nH]c3ccc(Br)cc23)CC1
Response: no

Query: Quick check: does O=C(C=Cc1ccc(Cl)c(Cl)c1)NCCCCCN1CCC(CCCNS(=O)(=O)c2ccc(F)cc2)CC1 have XC50 under 800 nM?
Response: no

Query: Given O=C(/C=C/c1ccc(Cl)c(Cl)c1)NCCCCCN1CCC(CCNC(=O)C2(c3ccc(Cl)cc3)CC2)CC1 , is recorded XC50 strictly lower than 800 nM?
Response: no

###

system: Plasmodium falciparum; assay: GSK_TCMDC: Inhibition of Plasmodium falciparum 3D7 in whole erythrocytes, using parasite LDH activity as an index of growth.; assay type: functional, organism-based; details: Plasmodium falciparum, 3D7
Assay readout: XC50 (nM)
Give your result in nM as a bare value.

compound=O=C(/C=C/c1ccc(Cl)c(Cl)c1)NC1CCN(Cc2ccc(O)cc2)CC1 numeric_value=691
compound="CN(C)c1cc2c(Nc3ccc4nc(Cc5ccccc5)[nH]c4c3)ncnc2cn1 [GW301888X]" numeric_value=1140
compound=COc1ccc2nccc([C@@H](O)CN3CCC(NC(=O)c4ccc5cc[nH]c5c4)CC3)c2c1 numeric_value=969

Query: Form field: reported XC50 of CCN(C)c1cc(C(=O)N[C@@H](Cc2ccccc2)[C@H](O)CNC(C)(C)c2cccc(OC)c2)cc(N2CCCC2=O)c1
Response: 73

Query: Find the recorded XC50 belonging to CNCCc1c(O)ccc2ccccc12 and report it.
Response: 804

Query: So what does the record say about XC50 for Cc1cc(N[C@@H](CC(C)C)C(=O)NCCOc2ccccc2)nc(NCCc2ccc(F)cc2)n1 ?
Response: 1290

Query: Requested field: XC50. Item: N=C(N)NC(=O)Nc1cc(F)c(Cl)c(Cl)c1
Response: 505

Query: Quick one: XC50 of COc1ccc(-c2ccc(CNCc3ccccc3)cc2)cc1S(=O)(=O)NCCN1CCCC1 ?
Response: 726

Query: Can you look up the measured XC50 of CN1CCCN(Cc2cccc(-c3cccc(NC(=O)c4ccc(Cl)cc4)c3)c2)CC1 for me?
Response: 922

Query: Recorded XC50 for COc1cc2cc(Cc3cnc(N)nc3N)ccc2c(OC)c1OC , please?
Response: 239

Query: If you can, please state the reported XC50 value of CCn1c(-c2nonc2N)nc2c(-c3cccc(NC(=O)Nc4cccc(OC)c4)c3)ncc(OCCCN)c21 .
Response: 769

###

test system: Plasmodium falciparum; assay: GSK_TCMDC: Inhibition of Plasmodium falciparum 3D7 in whole erythrocytes, using parasite LDH activity as an index of growth.; assay type: functional, organism-based; details: Plasmodium falciparum, 3D7
Assay readout: XC50
Write the quantity with the unit trailing the number.

// below: answered molecules
molecule=Cc1ncccc1C(=O)Nc1cccc(-c2cccc(-c3nc4cccc(C)c4[nH]3)c2)c1 result="956 nM"
molecule=COc1cccc(-c2[nH]c3ccccc3c2CN2CCC(c3c(C)cccc3C)CC2)c1 result="1020 nM"
molecule=COc1cc(C(=O)NC2CCN(Cc3ccccc3)CC2)ccc1-c1nc2c(Cl)cc(C(F)(F)F)cc2[nH]1 result="670 nM"
molecule=C/C=C1\CN2CC[C@H]1C[C@@H]2[C@@H](O)c1ccnc2ccc(O)cc12 result="245 nM"
molecule=COc1ccccc1CCNc1nc(C)cc(N[C@@H](Cc2ccccc2)C(=O)NCCCOC(C)C)n1 result="865 nM"
molecule="CC(C)(C)NC(=O)C(c1ccc(F)cc1)N(C(=O)c1ccc(CN2CCOCC2)o1)c1ccc(C2CCCCC2)cc1 (stereo not given)" result="925 nM"
molecule="CCc1ccccc1-c1csc(C(=O)NCC2CCN(Cc3ccc(C(C)(C)C)cc3)C2)c1 (stereo not given)" result="1150 nM"
molecule=O=C(Nc1ccnc(N2CCCN(Cc3cccc(O)c3)CC2)c1)c1ccc(F)cc1 result="1480 nM"

Query: State the recorded XC50 for this entry: Clc1ccc2c(NN=Cc3ccco3)ccnc2c1
Response: 1100 nM

Query: Record request: XC50 value, item Cc1cc(Nc2ncc(C#N)c(Nc3ccccc3C(N)=O)n2)ccc1N1CCN(C)CC1
Response: 8.63 nM

Query: What value of XC50 has been recorded for this entry: CCCCN(CCCC)CCCCNc1c2ccc(Cl)cc2nc2ccc(OC)cc12
Response: 175 nM

Query: // XC50 lookup, key: COc1cccc(Nc2nc(C)cc(Nc3cccc(C#N)c3)n2)c1
Response: 1080 nM

Query: Fill in: XC50 of Cc1ccc(NC(=O)c2ccc3ncccc3c2)cc1OC1CCN(Cc2ccsc2)C1 (stereo not given) is ___
Response: 802 nM

Query: Can you look up the measured XC50 of Cc1cccc(S(=O)(=O)Nc2cccc(CCN3CCC(N4CCCCC4)CC3)c2)c1 for me?
Response: 1330 nM

Query: Entry Cc1cccc2nc(-c3cccc(-c4cccc(NC(=O)NC5CC5c5ccccc5)c4)c3)[nH]c12 (stereo not given) has what XC50?
Response: 705 nM

Query: XC50 for CC1CN(Cc2cccc(F)c2)CCN1c1ccc(NC(=O)c2cccs2)cc1 (stereo not given) ?
Response: 448 nM

###

tested on: Plasmodium falciparum; experiment: GSK_TCMDC: Inhibition of Plasmodium falciparum 3D7 in whole erythrocytes, using parasite LDH activity as an index of growth.; assay type: functional, organism-based; conditions: Plasmodium falciparum, 3D7
Threshold check on XC50: strictly below 0.8 µM is True; on or above 0.8 µM is False.

molecule=C[C@H](Cc1ccc(OCCCCCOc2ccc(C[C@@H](C)NC[C@H](O)c3cccc(Cl)c3)cc2)cc1)NC[C@H](O)c1cccc(Cl)c1 category_label=True

Query: # check: XC50 < 0.8 µM for Cc1ccc(NC(=O)c2ccc3ncccc3c2)cc1OC1CCN(Cc2ccc(F)cc2)C1 (stereo unspecified)
Response: False

Query: Given the entry CC(C)(C)c1ccc2[nH]c(-c3ccc(/C=C/C(=O)NCc4ccc(Cl)c(Cl)c4)cc3)nc2c1 , would its reported XC50 be below 0.8 µM?
Response: True

Query: Please let me know if CN1CCC(C(=O)N(Cc2ccc(-c3ccc(CNCCc4ccc(S(C)(=O)=O)cc4)cn3)cc2)Cc2cccc(F)c2)CC1 shows XC50 below 0.8 µM.
Response: True

Query: Given Oc1cc(-c2nc(C3(CNCc4ccc(Cl)cc4)CCCCC3)[nH]c2-c2ccncc2)ccc1Cl , is recorded XC50 strictly lower than 0.8 µM?
Response: True

Query: Please check: XC50 for Cc1[nH]c2ccc(C#N)cc2c(=O)c1Br , strictly under 0.8 µM or not?
Response: True

Query: Item O=C(NCC1CCN(CC2CCCCC2)C1)c1cc(-c2cccc(Cl)c2)cs1 (stereo unspecified) : XC50 beneath 0.8 µM, strictly?
Response: False

Query: Field: below-cutoff. Rule: recorded XC50 strictly less than 0.8 µM. Subject: COc1ccc2nccc([C@@H](O)CN3CCC(NC(=O)c4nc(Cl)c(Cl)c(N)c4Cl)CC3)c2c1
Response: False

Query: Quick check: does c1cc(CN2CCCCC2)cc(-c2cccc(-c3nc4ccccc4[nH]3)c2)c1 have XC50 under 0.8 µM?
Response: False

Query: Dear colleague, could you confirm whether XC50 of Oc1ccc(CN2Cc3ccccc3OC3(CCN(Cc4c[nH]c5cnccc45)CC3)C2)cc1 falls below 0.8 µM? Thanks.
Response: False

Query: Field: below-cutoff. Rule: recorded XC50 strictly less than 0.8 µM. Subject: CC(C)(C)c1ccc(S(=O)(=O)Nc2cc(Cl)ccc2Cn2ccc(N3CCNCC3)nc2=O)cc1
Response: False

Query: Would you kindly verify if XC50 of CN1CCC(NCc2ccc(-c3cccc(S(=O)(=O)NCCc4ccccn4)c3)cc2)CC1 is strictly less than 0.8 µM?
Response: False

Query: Problem: For the molecule CCc1n[nH]c(C(=O)Nc2cccc(N3CCCC3)c2)c1C , is XC50 under 0.8 µM?
Response: False

Query: Here's an entry: CO/C(=C\C=C\c1cc2cc(Cl)c(Cl)cc2[nH]1)C(=O)NCCCN(C)CCN(C)c1ccccc1 . Is its XC50 below 0.8 µM?
Response: False

Query: Just wondering, is XC50 of Cn1cncc1C(=O)Nc1cccc(-c2csc(-c3nc4ccccc4[nH]3)c2)c1 below 0.8 µM?
Response: True

Query: XC50 under 0.8 µM? Item: CN1CCC(N2CCN(CCOc3cc(NC(=O)/C=C/c4ccccc4Cl)ccc3Br)CC2)CC1
Response: True

Query: Is XC50 of Cc1ccc(NC(=O)N2CCC(n3c(-c4ccccc4)nc4cccnc43)CC2)cc1F strictly below 0.8 µM?
Response: True
